Each recorded value in this set is attributed to the supplement of paper PMC13380429.

Test system: Vero E6 infected with SARS-CoV-2
test_description: inhibition of SARS-CoV-2 cytopathic effect; higher = more antiviral protection, active = above 15
settings: 833.33 nM; 48 h
# inhibition of SARS-CoV-2 cytopathic effect per record follows

CC(=O)OC[C@H]1O[C@@H](n2ccc(=O)[nH]c2=O)[C@H](OC(C)=O)[C@@H]1OC(C)=O [uridine-triacetate]    -3.59% (inactive)
CS(=O)(=O)c1cccc(CNc2nc(Nc3ccc4c(c3)CCC(=O)N4)ncc2C(F)(F)F)c1    1.33% (inactive)
C[n+]1ccccc1C=NO    0.94% (inactive)
C[C@]12CCC(=O)C[C@@H]1CC[C@@H]1[C@@H]2CC[C@]2(C)[C@@H](O)CC[C@@H]12 [Dihydrotestosterone]    -2.8% (inactive)
CC[C@@]1(O)C(=O)OCc2c1cc1n(c2=O)Cc2cc3ccccc3nc2-1    -11.9% (inactive)
Oc1cc(O)cc(/C=C/c2ccc(O)c(O)c2)c1    0.83% (inactive)
CC(C)(C)NC(=O)N[C@H](C(=O)N1C[C@H]2[C@@H]([C@H]1C(=O)NC(CC1CCC1)C(=O)C(N)=O)C2(C)C)C(C)(C)C (some centres not stated)    -1.89% (inactive)
CCOC(=O)[C@H](C)C[C@@H](Cc1ccc(-c2ccccc2)cc1)NC(=O)CCC(=O)O    -3.34% (inactive)

INPUT: System Vero E6 infected with SARS-CoV-2. Read-out inhibition of SARS-CoV-2 cytopathic effect. Item NCC(CS(=O)(=O)O)c1ccc(Cl)cc1 (configuration not stated) . Report value.
OUTPUT: 4.89% (inactive)

INPUT: Give measured inhibition of SARS-CoV-2 cytopathic effect for C[C@H]1[C@H](OC(=O)CCC(=O)O)O[C@@H]2O[C@@]3(C)CC[C@H]4[C@H](C)CC[C@@H]1[C@@]24OO3 [artesunate] (Vero E6 infected with SARS-CoV-2).
OUTPUT: -1.37% (inactive)

INPUT: Answer briefly: inhibition of SARS-CoV-2 cytopathic effect recorded on Vero E6 infected with SARS-CoV-2 for N#Cc1cc2c(OCC(O)CN3CCN(C(c4ccccc4)c4ccccc4)CC3)cccc2[nH]1 (configuration not stated)
OUTPUT: 4.21% (inactive)

INPUT: Tell me its inhibition of SARS-CoV-2 cytopathic effect on Vero E6 infected with SARS-CoV-2: C=C[C@H]1CN2CC[C@H]1C[C@@H]2[C@@H](O)c1ccnc2ccc(OC)cc12
OUTPUT: -4.54% (inactive)

INPUT: Provide inhibition of SARS-CoV-2 cytopathic effect, recorded with Vero E6 infected with SARS-CoV-2, of CCC(CC)[C@H](NC(C)=O)[C@@H]1[C@H](O)[C@@H](C(=O)O)C[C@H]1NC(=N)N
OUTPUT: 0.01% (inactive)

INPUT: Jot down inhibition of SARS-CoV-2 cytopathic effect (Vero E6 infected with SARS-CoV-2) of Cc1cccc(Oc2cnc(=O)[nH]c2)c1 .
OUTPUT: -13.1% (inactive)

INPUT: Jot down inhibition of SARS-CoV-2 cytopathic effect (Vero E6 infected with SARS-CoV-2) of CCn1c(-c2nonc2N)nc2cnc(Oc3cccc(NC(=O)c4ccc(OCCN5CCOCC5)cc4)c3)cc21 .
OUTPUT: -4.75% (inactive)

INPUT: Please tell me the measured inhibition of SARS-CoV-2 cytopathic effect for O=C(CSc1nc2c(c(=O)n1-c1ccccc1)SCC2)Nc1ccc(-c2ccccc2)cn1 ; system: Vero E6 infected with SARS-CoV-2.
OUTPUT: 1.2% (inactive)

INPUT: Quote Vero E6 infected with SARS-CoV-2 inhibition of SARS-CoV-2 cytopathic effect for entry CC1=C(/C=C/C(C)=C/C=C/C(C)=C/C(=O)O)C(C)(C)CCC1 .
OUTPUT: 2.67% (inactive)

====

Tested on: Vero E6 infected with SARS-CoV-2
test_description: morphology score (similarity to uninfected cells); higher = more like uninfected cells
settings: 24 h
Each entry below lists one item and its recorded morphology score value.
No unit in the answer, please; the number alone is enough.

Recorded results for 3 compounds are shown here.
CC1C=CC=CCCC=CC=CC=CC=CC(OC2OC(C)C(O)C(N)C2O)CC2OC(O)(CC(O)C(O)CCC(O)CC(O)CC(O)CC(=O)OC(C)C(C)C1O)CC(O)C2C(=O)O (centres undefined) [nystatin] (10 µM)    -0.0648
CC(c1cc2ccccc2s1)N(O)C(N)=O (centres undefined) [zileuton] (10 µM)    0.0704
CC1(C)[C@@H]2C[C@@H](O)[C@@](C)(O)[C@H]1C2 [2,3-cis/exo-pinanediol] (10 µM)    0.0892

INPUT: Give the value of morphology score reported for the following: CN(C)C(=O)n1nnnc1Cc1ccc(-c2ccccc2)cc1 (0.833333 µM)
OUTPUT: 0.00131

====

System: Vero E6 infected with SARS-CoV-2
test_description: inhibition of SARS-CoV-2 cytopathic effect; higher = more antiviral protection, active = above 15
settings: 833.33 nM; 48 h
quantity_name: inhibition of SARS-CoV-2 cytopathic effect (%)
Value expressed in %; do not type the unit.

O=c1[nH]cnc2c([C@@H]3N[C@H](CO)[C@@H](O)[C@H]3O)c[nH]c12    -1.77
CN1CCN(c2ccc3nc(-c4c(N)c5c(F)cccc5[nH]c4=O)[nH]c3c2)CC1    -1.8
OC[C@H]1O[C@H](O[C@H]2O[C@H](CO)[C@@H](O)[C@H](O)[C@H]2O)[C@H](O)[C@@H](O)[C@@H]1O    3.33

--- query ---
INPUT: Read the entry CSc1ccc([C@H]2CN3CCC[C@H]3c3ccccc32)cc1 (racemic) and write its reported inhibition of SARS-CoV-2 cytopathic effect.
OUTPUT: 3.32

====

Here, each record is paired with measured inhibition of SARS-CoV-2 cytopathic effect data.
System: Vero E6 infected with SARS-CoV-2
test_description: inhibition of SARS-CoV-2 cytopathic effect; higher = more antiviral protection, active = above 15
settings: 100 nM; 48 h
Unit % implied. Number only.

Below, each entry is followed by its recorded inhibition of SARS-CoV-2 cytopathic effect result.
NCCCCCNCC12CC3CC(CC(C3)C1)C2    0.57
O=C(NCCN1CCC2(CC1)C(=O)NCN2c1cccc(F)c1)c1ccc2ccccc2c1    1.66
CN1CC[C@H](c2c(O)cc(O)c3c(=O)cc(-c4ccccc4Cl)oc23)[C@H](O)C1 [alvocidib]    7.55

INPUT: // Input: CCN(CC)CCCC(C)Nc1ccnc2cc(Cl)ccc12 (stereo not given) [chloroquine] . Output its inhibition of SARS-CoV-2 cytopathic effect only.
OUTPUT: 0.51

INPUT: For the compound Cc1ccnc2c1NC(=O)c1cccnc1N2C1CC1 [nevirapine] , give its reported inhibition of SARS-CoV-2 cytopathic effect.
OUTPUT: 0.61

INPUT: Return the recorded inhibition of SARS-CoV-2 cytopathic effect value; entry: CCOc1ccccc1OCC1CNCCO1 (stereo not given) [viloxazine]
OUTPUT: 7.67

INPUT: Supply inhibition of SARS-CoV-2 cytopathic effect value. Item: C[C@@]1(O)[C@H](O)[C@@H](CO)O[C@H]1n1cnc2c(NC3CCCC3)nc(Cl)nc21
OUTPUT: 1.32

INPUT: Please supply the value of reported inhibition of SARS-CoV-2 cytopathic effect for the item CN1CC(=O)NC1=N [creatinine]
OUTPUT: -2.37

INPUT: Tell me its inhibition of SARS-CoV-2 cytopathic effect given CC(C)(C)c1[nH]cnc1/C=c1\[nH]c(=O)/c(=C/c2ccccc2)[nH]c1=O [plinabulin] as the entry.
OUTPUT: -1.75

INPUT: Give the reported inhibition of SARS-CoV-2 cytopathic effect for this compound. COc1ccc(CN(CCN(C)C)c2ncccn2)cc1 [thonzylamine]
OUTPUT: 0.24

INPUT: Look up and report measured inhibition of SARS-CoV-2 cytopathic effect for this entry: CS(=O)(=O)CCNCc1ccc(-c2ccc3ncnc(Nc4ccc(OCc5cccc(F)c5)c(Cl)c4)c3c2)o1 [lapatinib]
OUTPUT: -3.11

INPUT: Supply inhibition of SARS-CoV-2 cytopathic effect value. Item: Oc1ccc(OC2CCCCO2)cc1 (stereo not given) [deoxyarbutin]
OUTPUT: -0.6

====

Tested on: Vero E6 infected with SARS-CoV-2
test_description: inhibition of SARS-CoV-2 cytopathic effect; higher = more antiviral protection, active = above 15
settings: 10000 nM; 48 h
inhibition of SARS-CoV-2 cytopathic effect values, listed per item
Numeric only. Scale: %

COc1ccc(C(=O)Nc2sc3c(c2C(N)=O)CCCC3)cc1OC    0.05

INPUT: Dear colleague, please send me the reported inhibition of SARS-CoV-2 cytopathic effect for CCN1CCCC1CNC(=O)c1cc(S(=O)(=O)CC)c(N)cc1OC (stereo not given) [amisulpride] when you can.
OUTPUT: -1.76

INPUT: Tell us which inhibition of SARS-CoV-2 cytopathic effect value is on record for C[N+]12CCCCC1CCC(=C(c1cccs1)c1cccs1)C2 (stereo not given)
OUTPUT: -3.03

INPUT: Return inhibition of SARS-CoV-2 cytopathic effect for the following compound: CN1CCN(c2ccc(C(=O)Nc3n[nH]c4ccc(Cc5cc(F)cc(F)c5)cc34)c(NC3CCOCC3)c2)CC1
OUTPUT: -12.4
